sequences and their reported PBM E-score
# TARGET_UNDER_TEST: Yer184c (UniProt P39961)
# Sequence: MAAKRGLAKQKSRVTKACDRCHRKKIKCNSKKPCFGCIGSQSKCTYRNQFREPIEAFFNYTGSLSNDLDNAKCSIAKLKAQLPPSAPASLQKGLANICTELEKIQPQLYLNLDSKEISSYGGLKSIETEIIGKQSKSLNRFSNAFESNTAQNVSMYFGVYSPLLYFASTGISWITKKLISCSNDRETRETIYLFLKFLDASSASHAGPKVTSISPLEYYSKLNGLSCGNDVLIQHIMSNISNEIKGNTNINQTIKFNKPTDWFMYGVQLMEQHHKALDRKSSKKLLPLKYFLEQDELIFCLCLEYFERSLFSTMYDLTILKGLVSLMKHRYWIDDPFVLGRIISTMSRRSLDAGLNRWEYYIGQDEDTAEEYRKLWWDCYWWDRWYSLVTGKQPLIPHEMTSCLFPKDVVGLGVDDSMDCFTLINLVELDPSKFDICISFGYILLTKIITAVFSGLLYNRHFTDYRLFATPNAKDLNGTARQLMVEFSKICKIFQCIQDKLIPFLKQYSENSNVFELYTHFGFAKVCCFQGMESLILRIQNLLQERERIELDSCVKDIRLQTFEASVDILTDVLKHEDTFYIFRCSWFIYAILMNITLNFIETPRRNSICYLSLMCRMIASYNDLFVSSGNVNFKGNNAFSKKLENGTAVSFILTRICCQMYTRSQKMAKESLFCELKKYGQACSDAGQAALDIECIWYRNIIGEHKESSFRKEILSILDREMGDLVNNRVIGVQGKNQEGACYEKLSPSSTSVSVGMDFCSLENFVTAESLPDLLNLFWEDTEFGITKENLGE
# PROTOCOL_DESCRIPTION: PBM E-score (8-mer binding enrichment) (E-score (-0.5 to 0.5)); higher = stronger / more preferred TF binding
# CONDITION_SUMMARY: protein concentration: 100 nM; construct: GST-full length
In all, about 33,000 sequences were measured (“E-score (-0.5 to 0.5)”: median about -0.016, highest 2% from about 0.3 on). Many of the other results were omitted from the sample, so the highest values are more common in it than they were.
Format: numeric value only, no unit, no commentary.

The examples below pair each entry with its known result.
Briefly, PBM E-score measured for GCGGATGA : 0.125

Briefly, PBM E-score measured for TAGCCGCA : -0.0301

Briefly, PBM E-score measured for CTACGGAA : 0.205

Briefly, PBM E-score measured for CAGGATCG : -0.0543

Briefly, PBM E-score measured for AAGCCGGT : 0.258

---
Briefly, PBM E-score measured for CGGCACCG : 0.346

Briefly, PBM E-score measured for ACGGATCC : 0.288

Briefly, PBM E-score measured for CGGCACCC : 0.048

Entry source: the supplement of paper PMC3334620
